Assay: Ratio of IC50 for mouse NIH/3T3 cells harboring MDR G185 to IC50 for mouse NIH/3T3 cells
quantity: Ratio IC50
Respond with the number and no other words.

Previously resolved entries follow.
test smiles	quantity	val
CC(=O)OC1=C(c2ccc3c(c2)OCO3)Oc2cc3ccccc3cc2-n2cccc21	Ratio IC50	0.73
COc1cc2c(c(OC)c1OC)-c1ccc(OC)c(=O)cc1[C@@H](NC(C)=O)CC2	Ratio IC50	44.7

Lookup: Complete the entry with Ratio IC50 for "CC(=O)OC1=C(c2cccc3ccccc23)Oc2cc3ccccc3cc2-n2cccc21"
Found: 2.42

====

We begin with a simple list: items and their reported pIC50.
Tested on: NCI-H929
Assay: Cytotoxicity against human NCI-H929 cells after 48 hrs by MTT assay
Format: functional, cell-based
Settings: NCI-H929, 48 h
In plain terms, pIC50 is the concentration in mol/L turned into minus its base-10 logarithm.

test smiles	pIC50
CC(=O)OC1=C(c2cccc3ncccc23)Oc2cc3ccccc3cc2-n2cccc21	6.44

Okay, next one:
Lookup: Report pIC50, nothing else, for this compound: "CC(=O)OC1=C(c2cccc3ccccc23)Oc2cc3ccccc3cc2-n2cccc21"
Found: 6.42

====

Test system: A549
Experiment: Cytotoxicity against human A549 cells assessed as reduction in cell survival at 0.1 to 10 uM after 18 hrs by MTT assay
Format: functional, cell-based
Activity calls are given as the source filed them. No cut-off for these calls is given here.
quantity: Activity

test smiles	study system	val
CC(=O)OC1=C(c2cccc3ncccc23)Oc2cc3ccccc3cc2-n2cccc21	A549	Active
CC(=O)OC1=C(c2cccc3cccnc23)Oc2cc3ccccc3cc2-n2cccc21	A549	Active
CC(=O)OC1=C(c2cccc3ccccc23)Oc2cc3ccccc3cc2-n2cccc21	A549	Active

====

Assay: Chemical stability of compound in pH 7.4 aqueous solution assessed as compound remaining after 24 hrs by HPLC analysis
Format: physicochemical
Settings: read-out: Stability
quantity: remaining at 24 h

Lookup: Quote remaining at 24 h reported for "CC(=O)OC1=C(c2cccc3ncccc23)Oc2cc3ccccc3cc2-n2cccc21" please.
Found: 95.6%

====

System: HCC827
Experiment: Cytotoxicity against human HCC827 cells assessed as reduction in cell survival at 0.1 to 10 uM after 18 hrs by MTT assay
Assay type: functional, cell-based
The source made the active and inactive calls. The calls are words filed in the database; no cut-off is given here.

test smiles	Activity
CC(=O)OC1=C(c2cccc3ccccc23)Oc2cc3ccccc3cc2-n2cccc21	Active
CC(=O)OC1=C(c2cccc3ncccc23)Oc2cc3ccccc3cc2-n2cccc21	Active
CC(=O)OC1=C(c2cccc3cccnc23)Oc2cc3ccccc3cc2-n2cccc21	Active

====

Test: Ratio of IC50 for human A2780AD cells to IC50 for human A2780 cells
Type: functional
quantity: Ratio IC50
API doc: respond with a numeric literal and nothing else, no unit.

compound	Ratio IC50
CC(=O)OC1=C(c2cccc3ccccc23)Oc2cc3ccccc3cc2-n2cccc21	0.96
COc1cc2c(c(OC)c1OC)-c1ccc(OC)c(=O)cc1[C@@H](NC(C)=O)CC2 [COLCHICINE]	38.2
CC[C@]1(O)C[C@@H]2CN(CCc3c([nH]c4ccccc34)[C@@](C(=O)OC)(c3cc4c(cc3OC)N(C)[C@H]3[C@@](O)(C(=O)OC)[C@H](OC(C)=O)[C@]5(CC)C=CCN6CC[C@]43[C@@H]65)C2)C1 [VINBLASTINE]	88

Lookup: Tell me its Ratio IC50 given CC(=O)O[C@H]1C(=O)[C@@]2(C)[C@H]([C@H](OC(=O)c3ccccc3)[C@]3(O)C[C@H](OC(=O)[C@H](O)[C@@H](NC(=O)c4ccccc4)c4ccccc4)C(C)=C1C3(C)C)[C@]1(OC(C)=O)CO[C@@H]1C[C@@H]2O [PACLITAXEL] as the entry.
Found: 212.12

Lookup: Query Ratio IC50 for CCN(CC)CCCC(C)NC(=O)OC1=C(c2cccc3cccnc23)Oc2cc3ccccc3cc2-n2cccc21 (stereo unspecified)
Found: 0.71

Lookup: Input "CC(=O)OC1=C(c2cccc3ncccc23)Oc2cc3ccccc3cc2-n2cccc21" , output reported Ratio IC50.
Found: 1.15
